Can you tell me Neu for the items I'm about to list?
Species: Rattus norvegicus
Assay: Open TG-GATES - Regimen: Daily Repeat
Type: toxicity, organism-based, Sprague-Dawley
Set-up: regimen Daily Repeat, gender Male, age 6 weeks
Conditions: in vivo, po, 0 mg/kg, […], tissue Blood, route gavage, dose level Control, time 28 day
All answers are understood in %, so give the number only.

Report Neu for `O=C(O)c1cn(C2CC2)c2cc(N3CCNCC3)c(F)cc2c1=O`
11

Report Neu for `Cn1c(=O)c2[nH]cnc2n(C)c1=O.O`
15

Report Neu for `COc1ccc2c(c1)c(CC(=O)O)c(C)n2C(=O)c1ccc(Cl)cc1`
7.8

Report Neu for `C[C@H](CS)C(=O)N1CCC[C@H]1C(=O)O`
7.8

Report Neu for `O=C(O)c1cc(/N=N/c2ccc(S(=O)(=O)Nc3ccccn3)cc2)ccc1O`
12.4

Report Neu for `CN(C)CCC=C1c2ccccc2CCc2ccccc21`
18.2

Report Neu for `CC(=O)Oc1ccccc1C(=O)O`
13.8

Report Neu for `Clc1ccccc1CN1CCc2sccc2C1`
15.4

Report Neu for `CO[C@H]1/C=C/O[C@@]2(C)Oc3c(C)c(O)c4c(O)c(c(/C=N/N5CCN(C)CC5)c(O)c4c3C2=O)NC(=O)/C(C)=C\C=C\[C@H](C)[C@H](O)[C@@H](C)[C@@H](O)[C@@H](C)[C@H](OC(C)=O)[C@@H]1C`
12.4

Report Neu for `CCCC(CCC)C(=O)O`
12.8

Report Neu for `COc1ccc(Cc2nccc3cc(OC)c(OC)cc23)cc1OC`
17.8

Report Neu for CCc1cc(C(N)=S)ccn1 [ETHIONAMIDE]
13.2

Report Neu for NC(=O)N1c2ccccc2C=Cc2ccccc21 [CARBAMAZEPINE]
14.6

Report Neu for `NC(=O)N/N=C/c1ccc([N+](=O)[O-])o1`
19.4

Report Neu for CSc1ccc2c(c1)N(CCC1CCCCN1C)c1ccccc1S2 (stereo not given)
8.2

====

Species on record: Rattus norvegicus
Assay: Open TG-GATES - Regimen: Single
Format: toxicity, organism-based, Sprague-Dawley
Set-up: regimen Single, gender Male, age 6 weeks
Conditions: in vivo, po, 300 mg/kg, 24 h, tissue Blood, route gavage, dose level Middle
attribute measured: RBC (x10_4/ul)
All answers are understood in x10_4/ul, so give the number only.

Report RBC for `O=C(O)c1cn(C2CC2)c2cc(N3CCNCC3)c(F)cc2c1=O`
600.4

Report RBC for CCc1cc(C(N)=S)ccn1 [ETHIONAMIDE]
653.6

Report RBC for `Clc1ccccc1CN1CCc2sccc2C1`
635.4

Report RBC for `O=C(O)c1cc(/N=N/c2ccc(S(=O)(=O)Nc3ccccn3)cc2)ccc1O`
605.8

Report RBC for `C[C@H](CS)C(=O)N1CCC[C@H]1C(=O)O`
613.8

====

Species: Rattus norvegicus
Experiment: Open TG-GATES - Regimen: Single
Assay type: toxicity, organism-based, Sprague-Dawley
Set-up: regimen Single, gender Male, age 6 weeks
Conditions: in vivo, po, 300 mg/kg, 9 h, tissue Liver, route gavage, dose level Middle
Lab note - cut at 9 g for LIVER: satisfied if strictly below, not satisfied if not.

Consider the compound `Clc1ccccc1CN1CCc2sccc2C1` . Is its LIVER strictly less than 9 g?
satisfied

Consider the compound CCc1cc(C(N)=S)ccn1 [ETHIONAMIDE] . Is its LIVER strictly less than 9 g?
not satisfied

Consider the compound `O=C(O)c1cn(C2CC2)c2cc(N3CCNCC3)c(F)cc2c1=O` . Is its LIVER strictly less than 9 g?
satisfied

Consider the compound `O=C(O)c1cc(/N=N/c2ccc(S(=O)(=O)Nc3ccccn3)cc2)ccc1O` . Is its LIVER strictly less than 9 g?
satisfied

Consider the compound `C[C@H](CS)C(=O)N1CCC[C@H]1C(=O)O` . Is its LIVER strictly less than 9 g?
not satisfied

====

Organism: Rattus norvegicus
Assay: Open TG-GATES - Regimen: Single
Assay type: toxicity, organism-based, Sprague-Dawley
Parameters: regimen Single, gender Male, age 6 weeks
Details: in vivo, po, 300 mg/kg, 3 h, tissue Blood, route gavage, dose level Middle
Can you tell me APTT for the items I'm about to list?
All answers are understood in s, so give the number only.

Report APTT for `C[C@H](CS)C(=O)N1CCC[C@H]1C(=O)O`
16.3

Report APTT for CCc1cc(C(N)=S)ccn1 [ETHIONAMIDE]
17.6

Report APTT for `O=C(O)c1cn(C2CC2)c2cc(N3CCNCC3)c(F)cc2c1=O`
16.7

Report APTT for `Clc1ccccc1CN1CCc2sccc2C1`
19.5

Report APTT for `O=C(O)c1cc(/N=N/c2ccc(S(=O)(=O)Nc3ccccn3)cc2)ccc1O`
18.5

====

Organism: Rattus norvegicus
Test: Open TG-GATES - Regimen: Single
Assay type: toxicity, organism-based, Sprague-Dawley
Parameters: regimen Single, gender Male, age 6 weeks
Conditions: in vivo, po, 0 mg/kg, 6 h, tissue Kidney, route gavage, dose level Control
attribute measured: KIDNEY_L (g)
All answers are understood in g, so give the number only.

Report KIDNEY_L for Clc1ccccc1CN1CCc2sccc2C1 [TICLOPIDINE]
1

Report KIDNEY_L for NC(=O)N1c2ccccc2C=Cc2ccccc21 [CARBAMAZEPINE]
1

Report KIDNEY_L for O=C(O)c1cn(C2CC2)c2cc(N3CCNCC3)c(F)cc2c1=O [CIPROFLOXACIN]
0.9

Report KIDNEY_L for NC(=O)N/N=C/c1ccc([N+](=O)[O-])o1 [NITROFURAZONE]
0.8

Report KIDNEY_L for Cn1c(=O)c2[nH]cnc2n(C)c1=O.O [THEOPHYLLINE]
1

====

Species on record: Rattus norvegicus
Assay: Open TG-GATES - Regimen: Single
Type: toxicity, organism-based, Sprague-Dawley
Design: regimen Single, gender Male, age 6 weeks
Details: in vivo, po, 100 mg/kg, 3 h, tissue Plasma, route gavage, dose level Low
attribute measured: LDH (IU/L)
All answers are understood in IU/L, so give the number only.

Report LDH for `C[C@H](CS)C(=O)N1CCC[C@H]1C(=O)O`
113.6

Report LDH for CCc1cc(C(N)=S)ccn1 [ETHIONAMIDE]
109

Report LDH for `O=C(O)c1cc(/N=N/c2ccc(S(=O)(=O)Nc3ccccn3)cc2)ccc1O`
166.6

Report LDH for `Clc1ccccc1CN1CCc2sccc2C1`
155.4

Report LDH for `O=C(O)c1cn(C2CC2)c2cc(N3CCNCC3)c(F)cc2c1=O`
81.4

====

Can you tell me TP for the items I'm about to list?
Species on record: Rattus norvegicus
Assay: Open TG-GATES - Regimen: Single
Format: toxicity, organism-based, Sprague-Dawley
Parameters: regimen Single, gender Male, age 6 weeks
Conditions: in vivo, po, 1000 mg/kg, 6 h, tissue Plasma, route gavage, dose level High
All answers are understood in g/dL, so give the number only.

Report TP for `O=C(O)c1cn(C2CC2)c2cc(N3CCNCC3)c(F)cc2c1=O`
5.5

Report TP for `Clc1ccccc1CN1CCc2sccc2C1`
5.7

Report TP for `O=C(O)c1cc(/N=N/c2ccc(S(=O)(=O)Nc3ccccn3)cc2)ccc1O`
5.6

Report TP for CCc1cc(C(N)=S)ccn1 [ETHIONAMIDE]
5.6

Report TP for `C[C@H](CS)C(=O)N1CCC[C@H]1C(=O)O`
5.4

====

Species on record: Rattus norvegicus
Assay: Open TG-GATES - Regimen: Single
Assay type: toxicity, organism-based, Sprague-Dawley
Design: regimen Single, gender Male, age 6 weeks
Conditions: in vivo, po, 300 mg/kg, 3 h, tissue Plasma, route gavage, dose level Middle
Can you tell me RALB for the items I'm about to list?
All answers are understood in g/dL, so give the number only.

Report RALB for CCc1cc(C(N)=S)ccn1 [ETHIONAMIDE]
3.5

Report RALB for `O=C(O)c1cn(C2CC2)c2cc(N3CCNCC3)c(F)cc2c1=O`
3.9

Report RALB for `Clc1ccccc1CN1CCc2sccc2C1`
3.3

Report RALB for `C[C@H](CS)C(=O)N1CCC[C@H]1C(=O)O`
3.7

Report RALB for `O=C(O)c1cc(/N=N/c2ccc(S(=O)(=O)Nc3ccccn3)cc2)ccc1O`
3.3

====

Can you tell me Fbg for the items I'm about to list?
Species on record: Rattus norvegicus
Experiment: Open TG-GATES - Regimen: Single
Format: toxicity, organism-based, Sprague-Dawley
Set-up: regimen Single, gender Male, age 6 weeks
Details: in vivo, po, 300 mg/kg, 3 h, tissue Blood, route gavage, dose level Middle
All answers are understood in mg/dL, so give the number only.

Report Fbg for `Clc1ccccc1CN1CCc2sccc2C1`
220.8

Report Fbg for `C[C@H](CS)C(=O)N1CCC[C@H]1C(=O)O`
204.8

Report Fbg for `O=C(O)c1cn(C2CC2)c2cc(N3CCNCC3)c(F)cc2c1=O`
204.6

Report Fbg for `O=C(O)c1cc(/N=N/c2ccc(S(=O)(=O)Nc3ccccn3)cc2)ccc1O`
215.2

Report Fbg for CCc1cc(C(N)=S)ccn1 [ETHIONAMIDE]
208.2

Where do the numbers come from? From ChEMBL document CHEMBL3885861.
